test: Inhibition of HCV NS5B polymerase […]; design: species or system Hepacivirus hominis
assay metric: IC50 (µM)
Give a bare numeral; the unit µM is implied.

These solved cases illustrate the format of a correct answer.
[[record]]
compound = "Cc1ccc(S(=O)(=O)NC2=NC(=O)C(Cc3ccco3)S2)cc1 (stereo not given)"
experimental_value = 74

[[record]]
compound = "CCc1ccc(/C=C2\\SC(NC(=O)c3ccc(C)cc3)=NC2=O)o1"
experimental_value = 13

[[record]]
compound = "Cc1ccc(S(=O)(=O)NC2=NC(=O)/C(=C/c3ccc(C)s3)S2)cc1"
experimental_value = 14

[[record]]
compound = "CCc1ccc(/C=C2\\SC(NS(=O)(=O)c3ccc(C(F)(F)F)cc3)=NC2=O)o1"
experimental_value = 3.2

[[record]]
compound = "Cc1ccc(S(=O)(=O)NC2=NC(=O)/C(=C/c3ccc(I)o3)S2)cc1"
experimental_value = 2.8

[[record]]
compound = "Cc1ccc(S(=O)(=O)NC2=NC(=O)/C(=C/c3cc(C)c(Cl)s3)S2)cc1"
experimental_value = 10

[[record]]
compound = "Cc1ccc(S(=O)(=O)NC2=NC(=O)/C(=C/c3ccc([N+](=O)[O-])s3)S2)cc1"
experimental_value = 4.2

[[record]]
compound = "Cc1ccc(S(=O)(=O)NC2=NC(=O)/C(=C/c3ccc(C)o3)S2)cc1"
experimental_value = 11


So what's the measured IC50 for this one? Cc1ccc(C(=O)NC2=NC(=O)/C(=C/c3ccc(-c4nccs4)o3)S2)cc1
44

And what about the compound CCc1ccc(/C=C2\SC(NS(=O)(=O)c3ccccc3NC(C)=O)=NC2=O)o1 ?
34

====

assay: Inhibition of HCV NS5B polymerase […]; set-up: species or system Hepacivirus hominis
assay metric: IC50 (µM)
Give a bare numeral; the unit µM is implied.

These solved cases illustrate the format of a correct answer.
[[record]]
input_smiles = "Cc1ccc(S(=O)(=O)NC2=NC(=O)/C(=C/c3ccc(N4CCCC4)cc3)S2)cc1"
assay_metric = "IC50"
experimental_value = 1.4

[[record]]
input_smiles = "CCc1ccc(/C=C2\\SC(NS(=O)(=O)c3cccs3)=NC2=O)o1"
assay_metric = "IC50"
experimental_value = 8

[[record]]
input_smiles = "Cc1ccc(S(=O)(=O)NC2=NC(=O)/C(=C/c3ccc(N4CCOCC4)cc3)S2)cc1"
assay_metric = "IC50"
experimental_value = 12

[[record]]
input_smiles = "Cc1ccc(S(=O)(=O)NC2=NC(=O)/C(=C/c3ccc(-c4nc(C(C)(C)C)cs4)cc3)S2)cc1"
assay_metric = "IC50"
experimental_value = 4.9

[[record]]
input_smiles = "Cc1ccc(S(=O)(=O)NC2=NC(=O)/C(=C/C=C/c3ccccn3)S2)cc1"
assay_metric = "IC50"
experimental_value = 0.6

[[record]]
input_smiles = "Cc1ccc(S(=O)(=O)NC2=NC(=O)/C(=C/c3ccc(Br)o3)S2)cc1"
assay_metric = "IC50"
experimental_value = 2.7

[[record]]
input_smiles = "Cc1ccc(S(=O)(=O)NC2=NC(=O)/C(=C/c3ccc(-n4cccn4)cc3)S2)cc1"
assay_metric = "IC50"
experimental_value = 10

[[record]]
input_smiles = "Cc1ccc(S(=O)(=O)NC2=NC(=O)/C(=C/c3cc(C)c(C)o3)S2)cc1"
assay_metric = "IC50"
experimental_value = 3.2

[[record]]
input_smiles = "Cc1ccc(S(=O)(=O)NC2=NC(=O)/C(=C/c3ccc(-c4csnn4)cc3)S2)cc1"
assay_metric = "IC50"
experimental_value = 1.4


Now for a further compound.
So what's the measured IC50 for this one? CCc1ccc(/C=C2\SC(NS(=O)(=O)c3ccc([N+](=O)[O-])cc3)=NC2=O)o1
3.2

====

tested on: Hepatitis C virus; test: Antiviral activity against HCV replicon assay; type: functional, organism-based, Hepacivirus hominis
pEC50: −log10 of the molar value.
Quick rule: pEC50 of at least 4 means rule met, below that means rule not met.

Example entries and their recorded answers appear below.
[[record]]
compound = "Cc1ccc(S(=O)(=O)NC2=NC(=O)/C(=C/c3cc(C)c(Cl)s3)S2)cc1"
category_label = "rule not met"

[[record]]
compound = "CCc1ccc(/C=C2\\SC(NC(=O)c3ccc(C)cc3)=NC2=O)o1"
category_label = "rule not met"

[[record]]
compound = "Cc1ccc(S(=O)(=O)NC2=NC(=O)/C(=C/c3ccc(Br)o3)S2)cc1"
category_label = "rule met"

[[record]]
compound = "CCc1ccc(/C=C2\\SC(NS(=O)(=O)c3ccccc3N)=NC2=O)o1"
category_label = "rule met"


Check if pEC50 >= 4 (inclusive). Item: Cc1ccc(S(=O)(=O)NC2=NC(=O)C(CCCc3ccccn3)S2)cc1 (stereo unspecified)
rule not met

====

test system: Hepatitis C virus; assay: Antiviral activity against HCV replicon assay; type: functional, organism-based, Hepacivirus hominis
Recorded pEC50 by entry
# pEC50 is unitless: minus log10 of the molar concentration; print number only

[[record]]
compound = "Cc1ccc(S(=O)(=O)NC2=NC(=O)/C(=C/C=C/c3ccccn3)S2)cc1"
experimental_value = 4.46

[[record]]
compound = "CCc1ccc(/C=C2\\SC(NS(=O)(=O)c3cccs3)=NC2=O)o1"
experimental_value = 4.40


So what's the measured pEC50 for this one? Cc1ccc(C(=O)NC2=NC(=O)/C(=C/c3ccc(-c4ccc(-c5csnn5)cc4)o3)S2)cc1
4.15

And what about the compound CCN(CC)c1ccc(/C=C2\SC(NS(=O)(=O)c3ccc(C)cc3)=NC2=O)cc1 ?
4.05

And what about the compound CCCCN(C1=NC(=O)/C(=C/c2ccc(CC)o2)S1)S(=O)(=O)c1ccc(C)cc1 ?
4.48

And what about the compound Cc1ccc(C(=O)NC2=NC(=O)/C(=C/c3ccc(C)o3)S2)cc1 ?
4.22

And what about the compound CCc1ccc(CC2SC(NS(=O)(=O)c3ccc(C)cc3)=NC2=O)o1 (stereo not given) ?
4.48

And what about the compound Cc1ccc(S(=O)(=O)NC2=NC(=O)/C(=C/c3ccco3)S2)cc1 ?
4.22

And what about the compound CCc1ccc(/C=C2\SC(NS(=O)(=O)c3ccccc3NC(C)=O)=NC2=O)o1 ?
3.70

And what about the compound Cc1ccc(S(=O)(=O)NC2=NC(=O)C(Cc3ccc(I)o3)S2)cc1 (stereo not given) ?
4.40

====

assay: Inhibition of HCV NS5B polymerase […]; set-up: species or system Hepacivirus hominis
Recorded pIC50 by entry
# pIC50 is unitless: minus log10 of the molar concentration; print number only

These solved cases illustrate the format of a correct answer.
[[record]]
compound = "Cc1ccc(S(=O)(=O)NC2=NC(=O)/C(=C/c3ccc(-c4ccccc4)o3)S2)cc1"
experimental_value = 5.26

[[record]]
compound = "Cc1ccc(S(=O)(=O)NC2=NC(=O)/C(=C/c3cccs3)S2)cc1"
experimental_value = 4.92

[[record]]
compound = "CCc1ccc(/C=C2\\SC(NS(=O)(=O)c3ccccc3[N+](=O)[O-])=NC2=O)o1"
experimental_value = 4.74

[[record]]
compound = "Cc1ccc(C(=O)NC2=NC(=O)/C(=C/c3ccc(C)o3)S2)cc1"
experimental_value = 4.80


So what's the measured pIC50 for this one? Cc1ccc(S(=O)(=O)NC2=NC(=O)/C(=C/c3ccc(-n4cncn4)cc3)S2)cc1
4.49

And what about the compound Cc1ccc(S(=O)(=O)NC2=NC(=O)C(Cc3ccc(I)o3)S2)cc1 (stereo not given) ?
4.82

And what about the compound Cc1ccc(S(=O)(=O)NC2=NC(=O)/C(=C/C=C/c3ccco3)S2)cc1 ?
5.30

====

Recorded pIC50 by entry
experiment: Inhibition of HCV NS5B polymerase […]; set-up: species or system Hepacivirus hominis
pIC50: −log10 of the molar value.

These solved cases illustrate the format of a correct answer.
[[record]]
input_smiles = "CCCCCCN(C1=NC(=O)/C(=C/c2ccc(CC)o2)S1)S(=O)(=O)c1ccc(C)cc1"
assay_metric = "pIC50"
experimental_value = "< 4.00"

[[record]]
input_smiles = "CCCCCN(C1=NC(=O)/C(=C/c2ccc(CC)o2)S1)S(=O)(=O)c1ccc(C)cc1"
assay_metric = "pIC50"
experimental_value = "< 4.00"


Now for a further molecule.
So what's the measured pIC50 for this one? Cc1ccc(C(=O)NC2=NC(=O)/C(=C/c3ccc(-c4[nH]cnc4C)o3)S2)cc1
< 4.00
